Test: ATG_NFI_CIS: Attagene CIS-FACTORIAL HepG2 Assay for human Nuclear Factor I (NFI) (AID 2282989)
Details: HepG2 cis-regulatory reporter, NFI response element transcription; actives raise or lower the signal
Method: ATG_CIS is a cell-based, multiplexed-readout assay that uses HepG2, a human liver cell line, with measurements taken at 24 hours after chemical dosing in a 24-well plate.ATG_NFI_CIS is one of 52 assay component(s) measured or calculated from the ATG_CIS assay. […] This assay endpoint, ATG_NFI_CIS, was analyzed with bidirectional fitting relative to DMSO as the negative control and baseline of activity. […]
Calls of active or inactive are those of the source. The calls were made as follows: active = hit-call score of the fitted dose curve at least 0.9, where 1 is the maximum; inactive = score below 0.9.
Your response should consist of one outcome taken from active, inactive

>  <Compound>
OCCOc1ccccc1

>  <Category>
inactive

$$$$
>  <Compound>
CNC(=O)Oc1cccc(N=CN(C)C)c1

>  <Category>
active

$$$$
>  <Compound>
CCC(C)(NC(=O)c1cc(Cl)c(C)c(Cl)c1)C(=O)CCl (stereo not given)

>  <Category>
inactive

$$$$

stdin: Check the results log: what was the call for CCCN(CCC)c1c([N+](=O)[O-])cc(C(F)(F)F)cc1[N+](=O)[O-] ?
stdout: inactive

stdin: Check the results log: what was the call for CN1CSC(=S)N(C)C1 ?
stdout: active

stdin: Check the results log: what was the call for CC(C)(C)C(O)/C(=C\c1ccc(Cl)cc1Cl)n1cncn1 (stereo not given) ?
stdout: inactive

stdin: Check the results log: what was the call for CC1(c2ccc(Oc3ccccc3)cc2)OC(=O)N(Nc2ccccc2)C1=O (stereo not given) ?
stdout: inactive

stdin: Check the results log: what was the call for O=C(Nc1ccccc1)Nc1cnns1 ?
stdout: active

stdin: Check the results log: what was the call for O=C(NC(=O)c1c(F)cccc1F)Nc1ccc(OC(F)(F)C(F)OC(F)(F)F)c(Cl)c1 (stereo not given) ?
stdout: inactive

stdin: Check the results log: what was the call for COc1nn(CSP(=S)(OC)OC)c(=O)s1 ?
stdout: inactive

Measured values drawn from PubChem BioAssay (EPA / NIEHS) for this set.
